- system-under-test: Substance-P receptor (Cavia porcellus, UniProt P30547)
- Sequence (P30547 whole entry): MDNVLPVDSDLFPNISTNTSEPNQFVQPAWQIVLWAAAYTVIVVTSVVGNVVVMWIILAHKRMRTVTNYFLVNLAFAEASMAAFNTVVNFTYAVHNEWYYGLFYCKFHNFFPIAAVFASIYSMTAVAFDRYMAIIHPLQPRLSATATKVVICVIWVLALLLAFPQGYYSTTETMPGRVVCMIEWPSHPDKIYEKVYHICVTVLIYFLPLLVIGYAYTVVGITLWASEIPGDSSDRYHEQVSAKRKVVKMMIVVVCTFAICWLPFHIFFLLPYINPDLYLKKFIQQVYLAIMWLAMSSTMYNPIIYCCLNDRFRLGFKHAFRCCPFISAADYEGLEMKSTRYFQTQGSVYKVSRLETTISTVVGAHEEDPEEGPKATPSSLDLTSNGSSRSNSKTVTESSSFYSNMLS
- experiment-description: Displacement of specific binding of [3H]SP to tachykinin receptor 1 from the isolated guinea pig tracheal strips
quantity-name: IC50 (nM)
Express the result in nM but write the number alone.

Exercise: Provide only the value of recorded IC50 for CC(C)(C)OC(=O)N[C@@H](CCC(N)=O)C(=O)N[C@@H](Cc1ccccc1)C(=O)N[C@@H](Cc1ccccc1)C(=O)OCc1ccccc1
Key: 1000

Exercise: Provide only the value of recorded IC50 for CC(C)C[C@@H](NC(=O)[C@H](CCC(N)=O)NC(=O)OC(C)(C)C)C(=O)N[C@@H](Cc1ccccc1)C(=O)OCc1ccccc1
Key: 1000

Exercise: Provide only the value of recorded IC50 for CC(C)(C)OC(=O)N[C@@H](CCC(N)=O)C(=O)N[C@H](Cc1cn(C=O)c2ccccc12)C(=O)N[C@H](Cc1ccccc1)C(=O)OCc1ccccc1
Key: 770

Exercise: Provide only the value of recorded IC50 for CSCC[C@@H](NC(=O)[C@H](CCC(N)=O)NC(=O)OC(C)(C)C)C(=O)N[C@@H](Cc1ccccc1)C(=O)OCc1ccccc1
Key: 790
